ASSAY PROCEDURE: Pharmacokinetics in rat
Assay type: in vivo
CONDITION NOTES: plasma; rat, oral 3 mg/kg single dose, mean (SD)
OBSERVABLE: AUC(0-inf) (ng·h/mL)
One number for each entry, in ng·h/mL.

Notebook: CC[C@@H]1CN(C(=O)NCC(F)(F)F)C[C@@H]1c1cnc2cnc3[nH]ccc3n12 , AUC(0-inf) read as 472

----------
ASSAY PROCEDURE: Pharmacokinetics in rat
Format: in vivo
CONDITION NOTES: rat, plasma, po, 3 mg/kg, oral 3 mg/kg single dose, mean (SD)
OBSERVABLE: Cmax (ng/mL)
Answers are plain numbers, in ng/mL.

Cmax in this record for CC[C@@H]1CN(C(=O)NCC(F)(F)F)C[C@@H]1c1cnc2cnc3[nH]ccc3n12 [Compound 1] : 95
